biological target: rabbit derived excitatory amino acid carrier (Oryctolagus cuniculus, UniProt P31597); construct: ID No. 4; expressed in transfected cells; host or cells: Xenopus laevis oocytes injected with cRNA (25 ng/oocyte); experiment: inhibition of current evoked by L-glutamate in oocytes expressing rabbit EAAC1; format: cell-based
Sequence (P31597 whole entry): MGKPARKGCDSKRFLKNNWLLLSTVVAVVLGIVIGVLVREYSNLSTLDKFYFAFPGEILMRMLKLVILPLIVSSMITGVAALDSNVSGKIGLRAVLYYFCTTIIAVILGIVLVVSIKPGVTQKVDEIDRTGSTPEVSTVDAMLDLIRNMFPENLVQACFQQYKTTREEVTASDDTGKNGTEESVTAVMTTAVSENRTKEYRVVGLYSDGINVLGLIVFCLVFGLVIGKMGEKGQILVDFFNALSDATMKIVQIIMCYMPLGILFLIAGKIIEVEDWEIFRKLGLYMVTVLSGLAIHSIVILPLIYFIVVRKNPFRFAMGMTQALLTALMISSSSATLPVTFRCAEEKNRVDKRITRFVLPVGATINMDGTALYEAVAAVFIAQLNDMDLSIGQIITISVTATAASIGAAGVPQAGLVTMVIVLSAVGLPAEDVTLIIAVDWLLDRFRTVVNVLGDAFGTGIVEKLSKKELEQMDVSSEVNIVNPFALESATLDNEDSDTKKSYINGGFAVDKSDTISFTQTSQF
Reported IC50 values for a set of compounds
The reply should contain only the number, in µM.

>  <compound>
N[C@@H](CCCC(=O)O)C(=O)O [AAD, L-α-aminoadipate]

>  <display-unit>
µM

>  <IC50>
165

$$$$

Give measured IC50 for N[C@H](C(=O)O)[C@H](O)C(=O)O (relative stereo) [THA, DL-threo-β-hydroxyaspartate] (rabbit derived excitatory amino acid carrier (Oryctolagus cuniculus, UniProt P31597)).
7.1

###

Reported pIC50 values for a set of compounds
molecular target: Human High Affinity Glutamate Transporter HEAAC1 (Homo sapiens, UniProt P43005); assay: inhibition of L-glutamate-evoked currents in oocytes expressing human carrier; format: cell-based; parameters: expressed in transfected cells; host or cells: Xenopus laevis oocytes (cRNA injection; human kidney clone K-3); conditions: IC50, L-Glu = 100 um, HEAAC1; L-Glu = 100 um
Sequence (P43005 whole entry V96L/K170N/P172A/L260H): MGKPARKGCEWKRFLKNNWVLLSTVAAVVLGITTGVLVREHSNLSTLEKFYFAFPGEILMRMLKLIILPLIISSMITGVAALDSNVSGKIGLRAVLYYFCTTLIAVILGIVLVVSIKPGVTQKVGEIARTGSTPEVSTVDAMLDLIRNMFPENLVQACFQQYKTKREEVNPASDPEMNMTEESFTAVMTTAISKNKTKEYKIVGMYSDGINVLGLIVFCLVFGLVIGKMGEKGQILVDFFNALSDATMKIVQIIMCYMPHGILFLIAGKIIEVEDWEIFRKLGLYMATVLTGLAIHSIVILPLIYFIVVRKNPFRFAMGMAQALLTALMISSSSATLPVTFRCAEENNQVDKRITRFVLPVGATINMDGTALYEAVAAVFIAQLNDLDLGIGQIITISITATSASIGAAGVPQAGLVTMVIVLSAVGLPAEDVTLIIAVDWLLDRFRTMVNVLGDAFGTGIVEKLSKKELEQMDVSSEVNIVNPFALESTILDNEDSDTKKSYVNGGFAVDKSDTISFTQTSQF
The quantity pIC50 is defined as the negative base-10 logarithm of the molar concentration.

>  <compound>
O=C(O)[C@H]1CN[C@H](C(=O)O)C1 [PDC, L-trans-pyrolidine-2,4-dicarboxylate]

>  <measured-parameter>
pIC50

>  <observed>
4.13

$$$$

Consider the record given below.
Please report pIC50 for the following compound: N[C@H](C(=O)O)[C@H](O)C(=O)O (relative stereo) [THA, DL-threo-β-hydroxyaspartate]
4.55

###

biological target: UniProtKB P43005; assay: inhibition of L-glutamate-evoked currents in oocytes expressing human carrier; type: cell-based; parameters: expressed in transfected cells; host or cells: Xenopus laevis oocytes (cRNA injection; human kidney clone K-3); settings: IC50, L-Glu = 1 mM, HEAAC1; L-Glu = 1 mM
measured-parameter: pIC50
The quantity pIC50 is defined as the negative base-10 logarithm of the molar concentration.

Give measured pIC50 for O=C(O)[C@H]1CN[C@H](C(=O)O)C1 [PDC, L-trans-pyrolidine-2,4-dicarboxylate] (UniProtKB P43005).
4.04
